// Papp lookup, one value per entry
MEASUREMENT_PROTOCOL: MDCK wild type permeability/efflux
MEASUREMENT_CONDITIONS: dog
Numeric answer only, unit ×10⁻⁶ cm/s assumed.

COMPOUND: Cc1nc(Nc2ncc(C(=O)Nc3c(CF)csc3Cl)s2)cc(N2CCN(C)CC2)n1 [Compound E9]
Papp, ×10⁻⁶ cm/s: 10
//
COMPOUND: Cc1nc(Nc2ncc(C(=O)Nc3c(CF)csc3Cl)s2)cc(N2CCN(C)C(C)C2)n1 (racemic) [Compound E10]
Papp, ×10⁻⁶ cm/s: 10
//
COMPOUND: Cc1nc(Nc2ncc(C(=O)Nc3c(C(F)F)csc3Cl)s2)cc(N2CCN(CCO)CC2)n1 [Compound E4]
Papp, ×10⁻⁶ cm/s: 5
//
COMPOUND: Cc1nc(Nc2ncc(C(=O)Nc3c(CF)csc3Cl)s2)cc(N2CCCN(C)CC2)n1 [Compound E11]
Papp, ×10⁻⁶ cm/s: 8

Let us examine a further case.
Query: Determine from records and report Papp for Cc1nc(Nc2ncc(C(=O)Nc3c(CF)csc3Cl)s2)cc(N2CCN(CCO)CC2)n1 [Compound E3]
Response: 7

###

SYSTEM_TESTED: MDR1 (P-gp) (Homo sapiens (Human), UniProt P08183)
MEASUREMENT_PROTOCOL: MDR1-MDCK effective efflux assay
MEASUREMENT_CONDITIONS: dog, MDCK-MDR1, MDCK-MDR1 cells, Mean Efflux Ratio (MDR1), Table 5.1B
// efflux ratio lookup, one value per entry

// below: answered molecules
MOLECULE: Cc1nc(Nc2ncc(C(=O)Nc3c(CF)csc3Cl)s2)cc(N2CCN(C)C(C)C2)n1 (racemic)
MEASURED: 20 to 30

MOLECULE: Cc1nc(Nc2ncc(C(=O)Nc3c(CF)csc3Cl)s2)cc(N2CCN(C)CC2)n1
MEASURED: 20 to 30

Let us examine a further case.
Query: Provide efflux ratio, recorded with MDR1 (P-gp) (Homo sapiens (Human), UniProt P08183), of `Cc1nc(Nc2ncc(C(=O)Nc3c(C(F)F)csc3Cl)s2)cc(N2CCN(CCO)CC2)n1`
Response: 40 to 50

###

// IC50 lookup, one value per entry
SYSTEM_TESTED: SIK3 (Homo sapiens (Human), UniProt Q9Y2K2)
MEASUREMENT_CONDITIONS: read-out: SIK3 IC50
Numeric answer only, unit nM assumed.

// below: answered compounds
COMPOUND: Cc1nc(NCCO)cc(Nc2ncc(C(=O)Nc3c(Cl)ccnc3C)s2)n1 [Compound C11]
SYSTEM_TESTED: SIK3 (Homo sapiens (Human), UniProt Q9Y2K2)
IC50 / nM: 1510
//
COMPOUND: Cc1nc(Nc2ncc(C(=O)Nc3c(C)noc3C)s2)cc(N2CCN(CCO)CC2)n1 [Compound C9]
SYSTEM_TESTED: SIK3 (Homo sapiens (Human), UniProt Q9Y2K2)
IC50 / nM: 800
//
COMPOUND: Cc1nc(Nc2ncc(C(=O)Nc3c(C)ccnc3C)s2)cc(N2CCN(CCO)CC2)n1 [Compound C1]
SYSTEM_TESTED: SIK3 (Homo sapiens (Human), UniProt Q9Y2K2)
IC50 / nM: 867
//
COMPOUND: Cc1nc(Nc2ncc(C(=O)Nc3c(C)cncc3Cl)s2)cc(N2CCN(CCO)CC2)n1 [Compound C4]
SYSTEM_TESTED: SIK3 (Homo sapiens (Human), UniProt Q9Y2K2)
IC50 / nM: 677

Query: Determine from records and report IC50 for Cc1nc(Nc2ncc(C(=O)Nc3cccnc3C)s2)cc(N2CCN(CCO)CC2)n1 [Compound C6]
Response: 987
